Molecular target: T1, human TIM-3 extracellular domain protein with hFc tag (hTIM-3-hFc) (human, UniProt Q8TDQ0 22-200)
T1 construct: not shown: human IgG Fc fragment (hFc) of the pCpC vector
T1 sequence: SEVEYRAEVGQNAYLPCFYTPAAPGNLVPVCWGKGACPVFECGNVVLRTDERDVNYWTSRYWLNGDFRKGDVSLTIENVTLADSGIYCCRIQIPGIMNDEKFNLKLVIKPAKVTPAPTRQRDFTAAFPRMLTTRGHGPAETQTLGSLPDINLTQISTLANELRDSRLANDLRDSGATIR
Assay: ELISA, coated human TIM-3 ECD protein, 6.6667 nM antibody
I'd be grateful if you could share measured OD450 for these entries.
One number for each entry.

34B6D8 fully human TIM-3 antibody (human IgG4, kappa) (antibody, V domains shown) VH: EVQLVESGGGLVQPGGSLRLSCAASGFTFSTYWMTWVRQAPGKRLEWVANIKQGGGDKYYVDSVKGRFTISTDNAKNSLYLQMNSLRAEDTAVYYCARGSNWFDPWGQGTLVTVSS VL: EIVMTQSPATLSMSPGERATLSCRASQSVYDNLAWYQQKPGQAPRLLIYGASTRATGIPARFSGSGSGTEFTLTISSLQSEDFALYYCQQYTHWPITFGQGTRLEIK: 2.99

For each of the binders below, state OD450.
1. 18D2H2 fully human TIM-3 antibody (human IgG4, kappa) (antibody, V domains shown) VH: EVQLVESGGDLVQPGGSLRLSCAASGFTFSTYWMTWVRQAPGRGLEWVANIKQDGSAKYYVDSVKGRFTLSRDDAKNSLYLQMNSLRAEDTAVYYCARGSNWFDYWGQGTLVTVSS VL: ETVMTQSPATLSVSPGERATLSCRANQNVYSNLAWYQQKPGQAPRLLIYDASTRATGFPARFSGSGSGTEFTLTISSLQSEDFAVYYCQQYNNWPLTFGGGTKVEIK
2. 57F4E5 fully human TIM-3 antibody (human IgG4, kappa) (antibody, V domains shown) VH: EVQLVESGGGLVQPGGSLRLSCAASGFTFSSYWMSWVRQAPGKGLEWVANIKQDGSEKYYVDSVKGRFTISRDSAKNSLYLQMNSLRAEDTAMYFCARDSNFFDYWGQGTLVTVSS VL: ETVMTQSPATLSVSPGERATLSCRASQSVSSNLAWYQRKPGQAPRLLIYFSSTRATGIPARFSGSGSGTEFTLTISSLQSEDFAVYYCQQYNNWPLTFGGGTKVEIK
3. 7A4F10 fully human TIM-3 antibody (human IgG4, kappa) (antibody, V domains shown) VH: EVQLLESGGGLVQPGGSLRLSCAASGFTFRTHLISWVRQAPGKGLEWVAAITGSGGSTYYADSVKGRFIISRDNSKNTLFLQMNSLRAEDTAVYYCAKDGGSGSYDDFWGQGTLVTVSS VL: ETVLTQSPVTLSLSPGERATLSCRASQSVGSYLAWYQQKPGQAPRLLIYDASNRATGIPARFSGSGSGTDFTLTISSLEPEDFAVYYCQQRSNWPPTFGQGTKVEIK
4. 39E5H1 fully human TIM-3 antibody (human IgG4, kappa) (antibody, V domains shown) VH: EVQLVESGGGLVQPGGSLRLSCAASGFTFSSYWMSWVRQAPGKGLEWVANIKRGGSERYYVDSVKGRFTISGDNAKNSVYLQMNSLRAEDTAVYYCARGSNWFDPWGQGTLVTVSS VL: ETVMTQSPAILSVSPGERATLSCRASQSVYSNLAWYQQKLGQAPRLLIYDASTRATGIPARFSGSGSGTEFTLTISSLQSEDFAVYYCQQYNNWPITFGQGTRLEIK
5. 134H3G6 fully human TIM-3 antibody (human IgG4, kappa) (antibody, V domains shown) VH: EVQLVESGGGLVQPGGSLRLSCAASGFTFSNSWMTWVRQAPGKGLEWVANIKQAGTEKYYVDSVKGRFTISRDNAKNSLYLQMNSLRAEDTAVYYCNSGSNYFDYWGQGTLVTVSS VL: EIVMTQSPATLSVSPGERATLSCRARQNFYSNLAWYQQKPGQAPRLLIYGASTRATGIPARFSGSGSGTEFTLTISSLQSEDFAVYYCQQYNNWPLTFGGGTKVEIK

1. 2.61
2. 2.91
3. 3.01
4. 2.95
5. 2.81
